Just for reference, the supplement of paper PMC10127200 is where these values come from.

test system: 786-O; assay: Euclidean distance of Cell Painting phenotypic profile (signed KS, 77 features) to DMSO centroid (dimensionless distance); 5 or 10 uM (library dependent); higher = stronger phenotypic change vs DMSO (phenoactivity); settings: 48 h
Where a name gives a salt, the structure may show the parent alone.
Field: Euclidean distance. Provide a value for each of the molecules that follow.
Number only, no unit.

Lookup result for CCc1c2c(nc3ccc(OC(=O)N4CCC(N5CCCCC5)CC4)cc13)-c1cc3c(c(=O)n1C2)COC(=O)[C@]3(O)CC [Irinotecan HCl Trihydrate] ; measured Euclidean distance: 3.01

Lookup result for C(=C\c1ccccc1)/CN1CCN(C(c2ccccc2)c2ccccc2)CC1 ; measured Euclidean distance: 0.758

Lookup result for CCOC(=O)[C@H]1O[C@@H]1C(=O)N[C@@H](CC(C)C)C(=O)NCCC(C)C ; measured Euclidean distance: 0.731

Lookup result for Cc1cc2c(F)c(Oc3ncnn4cc(OC[C@@H](C)O)c(C)c34)ccc2[nH]1 ; measured Euclidean distance: 2.22

Lookup result for CNS(=O)(=O)Cc1ccc2[nH]cc(CCN(C)C)c2c1 [Sumatriptan Succinate] ; measured Euclidean distance: 1.54

Lookup result for Cc1nnc(SCC2=C(C(=O)O)N3C(=O)[C@@H](NC(=O)Cn4cc(Cl)c(=O)c(Cl)c4)[C@H]3SC2)s1 ; measured Euclidean distance: 1.36

Lookup result for CCN(c1cc(-c2ccc(CN3CCOCC3)cc2)cc(C(=O)NCc2c(C)cc(C)[nH]c2=O)c1C)C1CCOCC1 [Tazemetostat (EPZ-6438)] ; measured Euclidean distance: 0.99

Lookup result for CN[C@@H]1CCc2[nH]c3ccc(C(N)=O)cc3c2C1 [Frovatriptan Succinate] ; measured Euclidean distance: 1.33

====

tested on: OVCAR4; assay: Euclidean distance of Cell Painting phenotypic profile (signed KS, 77 features) to DMSO centroid (dimensionless distance); 5 or 10 uM (library dependent); higher = stronger phenotypic change vs DMSO (phenoactivity); details: 48 h
Structures can show the parent of a compound that is named as a salt.
reported metric: Euclidean distance
Number only, no unit.

Lookup result for CCCc1nc2c(C)cc(-c3nc4ccccc4n3C)cc2n1Cc1ccc(-c2ccccc2C(=O)O)cc1 ; measured Euclidean distance: 1.02

Lookup result for Cc1ccc(C(=O)Nc2ccc(CN3CCN(C)CC3)c(C(F)(F)F)c2)cc1C#Cc1cnc2[nH]ncc2c1 [GZD824 Dimesylate] ; measured Euclidean distance: 4.87

Lookup result for COc1ccc2cc1Oc1ccc(cc1)C[C@H]1c3cc(c(OC)cc3CCN1C)Oc1c(O)c(OC)cc3c1[C@H](C2)N(C)CC3 ; measured Euclidean distance: 4.4

Lookup result for CN(C)CCC=C1c2ccccc2CCc2ccccc21 [Amitriptyline HCl] ; measured Euclidean distance: 1.99

====

Field: Euclidean distance. Provide a value for each of the compounds that follow.
system: FB; assay: Euclidean distance of Cell Painting phenotypic profile (signed KS, 77 features) to DMSO centroid (dimensionless distance); 5 or 10 uM (library dependent); higher = stronger phenotypic change vs DMSO (phenoactivity); conditions: 48 h
Counter-ions that a name gives are not always drawn.
Number only, no unit.

Lookup result for COc1ccc(NS(=O)(=O)c2sc3ccc(Cl)cc3c2C)cc1N1CCNCC1 ; measured Euclidean distance: 1.13

Lookup result for CCOC(=O)Nc1ccc(NCc2ccc(F)cc2)nc1N [Flupirtine maleate] ; measured Euclidean distance: 1.25

Lookup result for CCCCc1nc2cc(/C=C/C(=O)NO)ccc2n1CCN(CC)CC [Pracinostat (SB939)] ; measured Euclidean distance: 4.08

Lookup result for Cc1ncc([N+](=O)[O-])n1CCO ; measured Euclidean distance: 1.08

Lookup result for CCCCN1CCCC[C@H]1C(=O)Nc1c(C)cccc1C [Levobupivacaine HCl] ; measured Euclidean distance: 0.871

====

system: HEPG2; assay: Euclidean distance of Cell Painting phenotypic profile (signed KS, 77 features) to DMSO centroid (dimensionless distance); 5 or 10 uM (library dependent); higher = stronger phenotypic change vs DMSO (phenoactivity); details: 48 h
Structures can show the parent of a compound that is named as a salt.
Tag: criterion met if measured Euclidean distance is not below 1, criterion not met if it is.

*Q* Does the reported Euclidean distance for O=C(Nc1ccc(Oc2ccc(Cl)cc2)c(Cl)c1)c1cc(I)cc(I)c1O [Rafoxanide] fall at or above the 1 mark?
*A* criterion met

*Q* Does the reported Euclidean distance for CC(=O)SCC(Cc1ccccc1)C(=O)NCC(=O)OCc1ccccc1 (stereo not given) fall at or above the 1 mark?
*A* criterion not met

*Q* Does the reported Euclidean distance for CN(C)CCC=C1c2ccccc2COc2ccccc21 [Doxepin HCl] fall at or above the 1 mark?
*A* criterion not met

*Q* Does the reported Euclidean distance for Cc1cccc(C)c1OCC(C)N (stereo not given) [Mexiletine HCl] fall at or above the 1 mark?
*A* criterion not met

*Q* Does the reported Euclidean distance for CC(C)c1cc(-c2n[nH]c(=O)n2-c2ccc3c(ccn3C)c2)c(O)cc1O [Ganetespib (STA-9090)] fall at or above the 1 mark?
*A* criterion met

====

Field: Euclidean distance. Provide a value for each of the compounds that follow.
system: FB; test: Euclidean distance of Cell Painting phenotypic profile (signed KS, 77 features) to DMSO centroid (dimensionless distance); 5 or 10 uM (library dependent); higher = stronger phenotypic change vs DMSO (phenoactivity); conditions: 48 h
Structures can show the parent of a compound that is named as a salt.
Number only, no unit.

Reported FB Euclidean distance for item CC(=O)SCC(Cc1ccccc1)C(=O)NCC(=O)OCc1ccccc1 (stereo not drawn) [Racecadotril] was 1.14

Reported FB Euclidean distance for item CCCCCCCCN=c1ccn(CCCCCCCCCCn2ccc(=NCCCCCCCC)cc2)cc1 [Octenidine Dihydrochloride] was 6.45

Reported FB Euclidean distance for item CC(=O)O[C@@H]1CC[C@@]2(C)[C@@H](CC[C@]3(C)[C@@H]2C(=O)C=C2[C@@H]4[C@@H](C)[C@H](C)CC[C@]4(C)CC[C@]23C)[C@@]1(C)C(=O)O was 0.939

Reported FB Euclidean distance for item CC(C)NCC(O)c1ccc(O)c(O)c1 (stereo not drawn) [Isoprenaline HCl] was 1.04

Reported FB Euclidean distance for item CN(CCN1CCC(OC(=O)Nc2ccccc2-c2ccccc2)CC1)C(=O)c1ccc(CN2CCC(C(N)=O)CC2)cc1 [Revefenacin] was 1.33

Reported FB Euclidean distance for item Cc1cnc(C(=O)N[C@H]2CCCCC/C=C\[C@@H]3C[C@@]3(C(=O)NS(=O)(=O)C3CC3)NC(=O)[C@@H]3C[C@@H](Oc4nc5ccccc5c5ccccc45)CN3C2=O)cn1 [Paritaprevir (ABT-450)] was 1.17

Reported FB Euclidean distance for item O=C(O)C(Cc1ccccc1[N+](=O)[O-])=NNc1nc(-c2ccc(Cl)c(Cl)c2)cs1 (mixture of isomers) was 2.32

Reported FB Euclidean distance for item CN(C)CC(c1ccc(O)cc1)C1(O)CCCCC1 (stereo not drawn) [Desvenlafaxine] was 0.932

====

test system: A549; experiment: Euclidean distance of Cell Painting phenotypic profile (signed KS, 77 features) to DMSO centroid (dimensionless distance); 5 or 10 uM (library dependent); higher = stronger phenotypic change vs DMSO (phenoactivity); settings: 48 h
Where a name gives a salt, the structure may show the parent alone.
reported metric: Euclidean distance
Number only, no unit.

Lookup result for O=c1c(-c2ccc(O)cc2)coc2c([C@@H]3O[C@H](CO)[C@@H](O)[C@H](O)[C@H]3O)c(O)ccc12 ; measured Euclidean distance: 0.728

Lookup result for Nc1c(Br)cc(Br)cc1CN[C@H]1CC[C@H](O)CC1 ; measured Euclidean distance: 0.59

Lookup result for CCN(CC)CCNC(=O)c1cc(Cl)c(N)cc1OC [Metoclopramide HCl] ; measured Euclidean distance: 0.513

Lookup result for COc1cc2c(Oc3ccc4[nH]c(C)cc4c3F)ccnc2cc1OCC1(N)CC1 [Anlotinib (AL3818) dihydrochloride] ; measured Euclidean distance: 3.7

Lookup result for Nc1ncnc2c1ncn2[C@@H]1O[C@H](CO)[C@@H](O)[C@H]1O ; measured Euclidean distance: 2.77

Lookup result for CCCCOc1ccc(OCCCN2CCOCC2)cc1 [Pramoxine HCl] ; measured Euclidean distance: 0.99

Lookup result for CC(C)CCNC(=O)[C@H](CC(C)C)NC(=O)[C@H]1O[C@@H]1C(=O)O [Loxistatin Acid (E-64C)] ; measured Euclidean distance: 2.18

Lookup result for COc1cc(/C=C/C(=O)O)ccc1O [Sodium ferulate] ; measured Euclidean distance: 1.15

Lookup result for CC(C)(C#N)c1ccc(N2C(=O)OCc3cnc4ccc(-c5cnc6ccccc6c5)cc4c32)cc1 ; measured Euclidean distance: 2.98

====

Field: Euclidean distance. Provide a value for each of the compounds that follow.
tested on: 786-O; test: Euclidean distance of Cell Painting phenotypic profile (signed KS, 77 features) to DMSO centroid (dimensionless distance); 5 or 10 uM (library dependent); higher = stronger phenotypic change vs DMSO (phenoactivity); details: 48 h
Structures can show the parent of a compound that is named as a salt.
Number only, no unit.

Lookup result for CC(C)(C)NC[C@H](O)COc1nsnc1N1CCOCC1 [Timolol Maleate] ; measured Euclidean distance: 1.22

Lookup result for COC(=O)[C@H]1[C@H]2C[C@@H]3c4[nH]c5cc(OC)ccc5c4CCN3C[C@H]2C[C@@H](OC(=O)c2cc(OC)c(OC)c(OC)c2)[C@@H]1OC ; measured Euclidean distance: 1.54

Lookup result for Cc1cn([C@H]2C=C[C@@H](CO)O2)c(=O)[nH]c1=O ; measured Euclidean distance: 1.64

Lookup result for COC(=O)[C@@H]1[C@H]2C[C@H]3c4[nH]c5ccccc5c4CCN3C[C@@H]2CC[C@@H]1O [Yohimbine HCl] ; measured Euclidean distance: 1.79

Lookup result for O=C(c1ccc(F)cc1)C1CCN(CCn2c(=O)[nH]c3ccccc3c2=O)CC1 ; measured Euclidean distance: 1.44

Lookup result for COc1cc2ncnc(Nc3cccc(Cl)c3F)c2cc1OC(=O)N1CCN(C)C[C@H]1C ; measured Euclidean distance: 1.15

Lookup result for C[N+]1(C)CCC(OC(=O)C(O)(c2ccccc2)C2CCCC2)C1 (stereo not drawn) [Glycopyrrolate] ; measured Euclidean distance: 1.08

Lookup result for CCOC(=O)[C@@H](N)Cc1ccc(-c2cc(O[C@H](c3ccc(Cl)cc3-n3ccc(C)n3)C(F)(F)F)nc(N)n2)cc1 [Telotristat Etiprate (LX 1606 Hippurate)] ; measured Euclidean distance: 3.69
